Where these numbers come from: PubChem BioAssay (NCI)

# Test system: KM12 colon
# Measurement Description: NCI tumour cell line growth inhibition, 48 h; in the data active = GI50 below about 0.43 µM; inactive = the rest
One label from this list, please: TRUE (active), FALSE (inactive)

# count of solved cases: 3
Molecule	Class Name
O=C(O)Cc1cccc2c(=O)cc(-c3ccccc3)oc12	FALSE
NCCCCC(NC(=O)C(N)CCCN=C(N)N)C(=O)NC(CCCCN)C(=O)NC(CCCN=C(N)N)C(=O)NC(CCCN=C(N)N)C(=O)NC(CCC(N)=O)C(=O)NC(CCCN=C(N)N)C(=O)NC(CCCN=C(N)N)C(=O)NC(CCCN=C(N)N)C(=O)NCC(=O)NCC(=O)O (stereo not drawn)	FALSE
COc1cnc2c(c1)C(=O)c1c-2n(CCCN2CCCC2)c(=O)c2cc([N+](=O)[O-])ccc12	TRUE

Which outcome did this test record for the molecule CN1C(=O)CCC(N2C(=O)c3cccc(NCCOCCOCCNC(=O)c4cc5c(o4)C(=O)c4ccccc4C5=O)c3C2=O)C1=O (stereo not drawn) ?
FALSE

Which outcome did this test record for the molecule CSc1ccc(C2=NN(C(C)=O)C(c3ccc(-c4cc(Cl)c(Cl)cc4Cl)o3)C2)cc1 (stereo not drawn) ?
FALSE

Which outcome did this test record for the molecule O=S(=O)(N=C1C(Cl)=C(Cl)C(=NS(=O)(=O)c2ccccc2)C(Cl)=C1Cl)c1ccccc1 ?
FALSE

Which outcome did this test record for the molecule CC1=C([Te]c2ccccc2)C(=O)c2ccccc2C1=O ?
TRUE

Which outcome did this test record for the molecule COc1cc(-c2nn(-c3cccc(NC(=O)Nc4ccc(Cl)c(C(F)(F)F)c4)c3)cc2-c2ccncc2)ccc1Cl ?
FALSE
